Entries annotated with measured MIC50
Test system: Mycobacteroides abscessus
Assay: Antimycobacterial activity against Mycobacterium abscessus after 3 days by agar dilution method
Type: functional
Conditions: 72 h
MEASUREMENT LABEL: MIC50 (µg/mL)

COc1c(N2CCNC(C)C2)c(F)cc2c(=O)c(C(=O)O)cn(C3CC3)c12 (stereo not given) :: 32
C[C@H]1COc2c(N3CCN(C)CC3)c(F)cc3c(=O)c(C(=O)O)cn1c23.C[C@H]1COc2c(N3CCN(C)CC3)c(F)cc3c(=O)c(C(=O)O)cn1c23.O :: 64
COc1c(N2CC3(CC3)[C@](C)(N)C2)c(F)cc2c(=O)c(C(=O)O)cn([C@@H]3C[C@@H]3F)c12 :: 8
COc1c(N2C[C@@H]3CCCN[C@@H]3C2)c(F)cc2c(=O)c(C(=O)O)cn(C3CC3)c12 :: 64
